target: mGluR5 (Homo sapiens, UniProt P41594); test: mGluR5 PAM EC50 (positive allosteric modulator potency)
Sequence (P41594 21-1212): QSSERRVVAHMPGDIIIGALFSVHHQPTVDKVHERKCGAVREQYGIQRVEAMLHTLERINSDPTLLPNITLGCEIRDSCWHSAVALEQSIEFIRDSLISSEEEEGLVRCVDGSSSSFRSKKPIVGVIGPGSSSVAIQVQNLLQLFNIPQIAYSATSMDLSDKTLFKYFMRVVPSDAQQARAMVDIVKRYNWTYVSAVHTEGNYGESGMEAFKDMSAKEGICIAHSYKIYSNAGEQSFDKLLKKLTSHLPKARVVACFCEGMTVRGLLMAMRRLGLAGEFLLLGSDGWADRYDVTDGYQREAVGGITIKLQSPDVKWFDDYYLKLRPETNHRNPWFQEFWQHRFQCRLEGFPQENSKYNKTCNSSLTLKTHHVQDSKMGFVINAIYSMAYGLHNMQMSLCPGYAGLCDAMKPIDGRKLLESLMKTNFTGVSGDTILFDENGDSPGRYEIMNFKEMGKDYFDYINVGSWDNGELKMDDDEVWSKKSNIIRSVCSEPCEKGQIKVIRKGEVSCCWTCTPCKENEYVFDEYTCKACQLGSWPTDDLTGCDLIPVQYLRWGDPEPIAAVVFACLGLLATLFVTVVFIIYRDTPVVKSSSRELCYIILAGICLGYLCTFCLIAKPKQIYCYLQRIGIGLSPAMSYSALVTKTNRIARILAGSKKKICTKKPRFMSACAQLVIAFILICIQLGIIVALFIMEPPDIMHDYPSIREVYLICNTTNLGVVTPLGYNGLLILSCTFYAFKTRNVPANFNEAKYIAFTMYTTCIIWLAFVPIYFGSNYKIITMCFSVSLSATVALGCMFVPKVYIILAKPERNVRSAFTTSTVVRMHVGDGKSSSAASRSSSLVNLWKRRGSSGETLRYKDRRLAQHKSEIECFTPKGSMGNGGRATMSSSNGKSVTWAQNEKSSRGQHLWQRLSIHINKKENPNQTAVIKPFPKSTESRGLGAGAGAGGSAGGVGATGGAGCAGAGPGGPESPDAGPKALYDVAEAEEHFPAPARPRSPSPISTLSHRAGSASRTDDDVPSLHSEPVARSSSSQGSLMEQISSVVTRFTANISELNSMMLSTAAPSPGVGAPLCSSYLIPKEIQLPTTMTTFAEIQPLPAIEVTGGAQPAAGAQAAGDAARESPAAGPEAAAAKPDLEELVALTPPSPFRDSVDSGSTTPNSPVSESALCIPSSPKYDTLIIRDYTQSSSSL
TEST READOUT: EC50

Consider the reported EC50 for these compounds:
CC(C)(F)C1Cc2nc3cc(C#Cc4ccccn4)ccc3c(=O)n2C1 (single isomer, unassigned) [Example 1.3b]: 0.1 to 0.3 µM
O=c1c2ccc(C#Cc3ccccn3)cc2nc2n1CC(CF)C2 (single isomer, unassigned) [Example 1.9a]: 0.03 to 0.1 µM
CCC1CCCc2nc3cc(C#Cc4ccccn4)ccc3c(=O)n21 (single isomer, unassigned) [Example 2.7a]: 0.03 to 0.1 µM
O=C(Nc1ccccn1)c1ccc2c(=O)n3c(nc2c1)CCC(F)(F)CC3: 0.3 to 1 µM
CC1Cn2c(nc3cc(C#Cc4ccccn4)ccc3c2=O)CO1 (single isomer, unassigned): < 0.01 µM

**Query** Please report the measured EC50 for `COc1ccc(C#Cc2ccc3c(=O)n4c(nc3c2)CCC(C)(C)C4)nc1`
**Result** 0.03 to 0.1 µM

**Query** Please report the measured EC50 for `O=c1c2ccc(C#Cc3ccccn3)cc2nc2n1CC1(COC1)C2`
**Result** 0.03 to 0.1 µM

**Query** Please report the measured EC50 for `CC1(C)CCn2c(nc3cc(/C=C/c4cc(C#N)ccn4)ccc3c2=O)C1`
**Result** 0.3 to 1 µM

**Query** Please report the measured EC50 for O=c1c2ccc(C#Cc3ccccn3)cc2nc2n1CCC1COCC1C2 (single isomer, unassigned) [Example 3.2e]
**Result** 0.03 to 0.1 µM

**Query** Please report the measured EC50 for O=c1c2ccc(C#Cc3ccccn3)cc2nc2n1CC1CCCCN21 (stereo not shown)
**Result** 0.03 to 0.1 µM

**Query** Please report the measured EC50 for `O=c1c2ccc(C#Cc3ccccn3)cc2nc2n1CC1(CC2)COC1`
**Result** 0.01 to 0.03 µM

**Query** Please report the measured EC50 for CC1CCn2c(nc3cc(C#Cc4ccccn4)cnc3c2=O)C1 (single isomer, unassigned) [Example 2.17b]
**Result** 0.3 to 1 µM

**Query** Please report the measured EC50 for CC1(C)CC(F)c2nc3cc(C#Cc4ccccn4)cnc3c(=O)n2C1 (single isomer, unassigned) [Example 2.15a]
**Result** 0.03 to 0.1 µM

**Query** Please report the measured EC50 for COC1(C)CCc2nc3cc(C#Cc4ccccn4)ccc3c(=O)n2CC1 (single isomer, unassigned)
**Result** 0.03 to 0.1 µM

**Query** Please report the measured EC50 for `CC1(C)CCc2nc3cc(-c4cnc(-c5ccccn5)s4)ccc3c(=O)n2C1`
**Result** 0.3 to 1 µM

**Query** Please report the measured EC50 for `CC1(C)CCc2nc3cc(C(=O)Nc4ccccn4)ccc3c(=O)n2C1`
**Result** 0.1 to 0.3 µM

----------
biological target: mGluR5 (Homo sapiens); test: mGluR5 PAM EC50 (positive allosteric modulator potency)
This section presents compounds with their documented EC50 values.

Consider the reported EC50 for these compounds:
CC1CCCc2nc3cc(C#Cc4ccccn4)ccc3c(=O)n21 (single isomer, unassigned) [Example 2.3b]: < 10 nM
COC1(C)CCc2nc3cc(C#Cc4ccccn4)ccc3c(=O)n2C1 (single isomer, unassigned) [Example 2.8b]: 30 to 100 nM

**Query** Please report the measured EC50 for O=c1c2ccc(C#Cc3ccccn3)cc2nc2n1CCC1(CCCO1)CC2 (single isomer, unassigned) [Example 3.3b]
**Result** 100 to 300 nM

**Query** Please report the measured EC50 for CC1(C)CCc2nc3cc(C#Cc4cnccc4F)ccc3c(=O)n2C1 [Example 2.90]
**Result** < 10 nM

----------
This section presents compounds with their documented EC50 values.
target: mGluR5 (Homo sapiens, UniProt P41594); test: mGluR5 PAM EC50 (positive allosteric modulator potency)

CC1(C)CCn2c(nc3c(F)c(C#Cc4ccccn4)ccc3c2=O)C1 [Example 2.30a]: 10 to 30 nM
CC1(C)Cn2c(nc3cc(C#Cc4ccccn4)ccc3c2=O)C1F (single isomer, unassigned) [Example 1.11a]: < 10 nM
COC(C)(C)C1Cc2nc3cc(C#Cc4ccccn4)ccc3c(=O)n2C1 (centres unmarked) [Example 1.4]: 10 to 30 nM
O=c1c2ccc(C#Cc3ccccn3)cc2nc2n1CC(C(F)(F)F)CC2 (single isomer, unassigned) [Example 2.14b]: < 10 nM
CC1(C)CCc2nc3cc(NC(=O)Nc4ccccn4)ccc3c(=O)n2C1 [Example 6.12]: 300 to 1000 nM

**Query** Lab note: mGluR5 (Homo sapiens, UniProt P41594) assay, enter EC50 for CC12Cc3nc4cc(C#Cc5ccccn5)ccc4c(=O)n3CC1C2 (centres unmarked) [Example 2.98] here
**Result** < 10 nM

**Query** Lab note: mGluR5 (Homo sapiens, UniProt P41594) assay, enter EC50 for CC1(F)CCc2nc3cc(C#Cc4ccccn4)ccc3c(=O)n2C1 (single isomer, unassigned) [Example 2.13a] here
**Result** 10 to 30 nM

**Query** Lab note: mGluR5 (Homo sapiens, UniProt P41594) assay, enter EC50 for CC1(C)CCc2nc3cc(C#Cc4ccc(Cl)cn4)ccc3c(=O)n2C1 [Example 2.42] here
**Result** < 10 nM

----------
target: mGluR5 (Homo sapiens, UniProt P41594); assay: mGluR5 fold shift at a fixed compound concentration; assay type: cell-based; conditions: at 1 μM
TEST READOUT: Fold shift at 1 μM

COC(C)(C)C1Cc2nc3cc(C#Cc4ccccn4)ccc3c(=O)n2C1 (centres unmarked): +++ (+++>3)
CC12Cc3nc4cc(C#Cc5ccccn5)ccc4c(=O)n3CC1C2 (centres unmarked): +++ (+++>3)
Cc1cccc(C#Cc2ccc3c(=O)n4c(nc3c2)CCC(C)(C)C4)c1: +++ (+++>3)
O=c1c2ccc(C#Cc3ccccn3)cc2nc2n1CC1(CCC1)C2: +++ (+++>3)
COC1(C)CCc2nc3cc(C#Cc4ccccn4)ccc3c(=O)n2C1 (single isomer, unassigned): +++ (+++>3)

**Query** Please report the measured Fold shift at 1 μM for CC1(F)CCc2nc3cc(C#Cc4ccccn4)cnc3c(=O)n2CC1 (single isomer, unassigned) [Example 3.10b]
**Result** +++ (+++>3)

**Query** Please report the measured Fold shift at 1 μM for `CC1(C)CCc2nc3cc(C#Cc4ccc(Cl)cn4)ccc3c(=O)n2C1`
**Result** +++ (+++>3)

**Query** Please report the measured Fold shift at 1 μM for O=c1c2ccc(C#Cc3ccccn3)cc2nc2n1CC1(CCC2)CC1(F)F (centres unmarked)
**Result** +++ (+++>3)

**Query** Please report the measured Fold shift at 1 μM for CC12Cn3c(nc4cc(C#Cc5ccccn5)ccc4c3=O)CC1C2(F)F (centres unmarked)
**Result** +++ (+++>3)

**Query** Please report the measured Fold shift at 1 μM for CCC1(C)Cc2nc3cc(C#Cc4ccccn4)ccc3c(=O)n2C1 (centres unmarked)
**Result** +++ (+++>3)

**Query** Please report the measured Fold shift at 1 μM for CC1(CF)CCc2nc3cc(C#Cc4ccccn4)ccc3c(=O)n2C1 (centres unmarked)
**Result** +++ (+++>3)

**Query** Please report the measured Fold shift at 1 μM for COCC1(C)CCc2nc3cc(C#Cc4ccccn4)ccc3c(=O)n2C1 (centres unmarked)
**Result** +++ (+++>3)

**Query** Please report the measured Fold shift at 1 μM for O=c1c2ccc(C#Cc3ccccn3)cc2nc2n1CC1(CC2)CC1(F)F (centres unmarked)
**Result** +++ (+++>3)

**Query** Please report the measured Fold shift at 1 μM for `CC1(C)COc2nc3cc(C#Cc4ccccn4)ccc3c(=O)n2C1`
**Result** +++ (+++>3)

**Query** Please report the measured Fold shift at 1 μM for O=c1c2ccc(C#Cc3ccccn3)cc2nc2n1CC(C(F)(F)F)C2 (single isomer, unassigned) [Example 1.8a]
**Result** +++ (+++>3)

----------
target: mGluR5 (Homo sapiens, UniProt P41594); experiment: mGluR5 fold shift at a fixed compound concentration; type: cell-based; details: at 10 μM
TEST READOUT: Fold shift at 10 μM

CC1(C)CC(F)c2nc3cc(C#Cc4ccccn4)ccc3c(=O)n2C1 (single isomer, unassigned) [Example 2.12a]: +++ (+++>3)
CC1Cc2nc3cc(C#Cc4ccccn4)ccc3c(=O)n2CCC1(F)F (single isomer, unassigned) [Example 3.30c]: +++ (+++>3)
O=c1c2ccc(C#Cc3ccccn3)cc2nc2n1CCC(F)(F)CC2: +++ (+++>3)

----------
target: mGluR5 (Homo sapiens); assay: mGluR5 fold shift at a fixed compound concentration; assay type: cell-based; details: at 1 μM
TEST READOUT: Fold shift at 1 μM

O=c1c2ccc(C#Cc3ccccn3)cc2nc2n1CC1(CC2)COC1 [Example 2.58]: +++ (+++>3)
CC1(C)CCc2nc3c(F)c(C#Cc4ccccn4)ccc3c(=O)n2C1 [Example 2.30b]: +++ (+++>3)
Cc1cccc(C#Cc2ccc3c(=O)n4c(nc3c2)CCC(C)(C)C4)n1 [Example 2.41]: +++ (+++>3)
